# Measurement protocol: Plasma and CSF pharmacokinetic study, single sublingual, oral or subcutaneous dose, male Beagle dogs
# Assay type: in vivo
# Measurement setup: male, beagle, dog, in vivo, po, 10 mg/kg, plasma concentration
Parameter: concentration at 0.5 h
Answer format: value, then unit.

Exercise: Name the recorded concentration at 0.5 h for CN1CCc2cccc3c2[C@@H]1Cc1ccc(O)c(O)c1-3 .
Key: 78 ng/mL

###

# Measurement protocol: Plasma and CSF pharmacokinetic study, single sublingual, oral or subcutaneous dose, male Beagle dogs
# Format: in vivo
# Measurement setup: male, beagle, dog, in vivo, 5 mg/kg, plasma concentration
Parameter: concentration at 2 h (ng/mL)
The reply should contain only the number, in ng/mL.

Exercise: Recorded concentration at 2 h of CN1CCc2cccc3c2[C@@H]1Cc1ccc(O)c(O)c1-3 , please.
Key: 10.8

###

# Measurement protocol: Plasma and CSF pharmacokinetic study, single sublingual, oral or subcutaneous dose, male Beagle dogs
# Type: in vivo
# Measurement setup: male, beagle, dog, in vivo, po, 10 mg/kg, AUClast ratio of CSF to total plasma
Parameter: Kp
Reply with the value as a number alone.

Exercise: Recorded Kp for CN1CCc2cccc3c2[C@@H]1Cc1ccc(O)c(O)c1-3 , please?
Key: 0.27

###

# Measurement protocol: Plasma and CSF pharmacokinetic study, single sublingual, oral or subcutaneous dose, male Beagle dogs
# Assay type: in vivo
# Measurement setup: male, beagle, dog, in vivo, po, 10 mg/kg, plasma concentration
# Method: Animals were fed twice daily. […] Food was withheld until 4-hour post-dose. All blood samples were collected from a peripheral vessel. For CSF collection, a polypropylene tube was first weighted to accuracy of 0.1 mg (weight #1). CSF was collected in the tube and weighted again (weight #2). Total CSF weight was calculated by subtracting weight #1 from weight #2. Samples were kept on ice and protected from sunlight. […]
Parameter: concentration at 24 h (ng/mL)
Provide only the numeric value, understood in ng/mL.

Exercise: What value of concentration at 24 h has been recorded for this entry: CN1CCc2cccc3c2[C@@H]1Cc1ccc(O)c(O)c1-3
Key: 4.5

###

# Measurement protocol: in vivo
# Measurement setup: male, SD, rat
Parameter: concentration at 2 h (ng/mL)
Kindly provide the numeric value in ng/mL only, without the unit symbol.

Exercise: Given CN1CCc2cccc3c2[C@@H]1Cc1ccc(O)c(O)c1-3 , state its recorded concentration at 2 h.
Key: 6.87

###

# Measurement protocol: in vivo
# Measurement setup: male, beagle, dog, in vivo, po, 10 mg/kg, ratio of striatum/plasma
Parameter: Kp at 0.5 h
When you answer, write just the number.

Exercise: # lookup: Kp at 0.5 h of CN1CCc2cccc3c2[C@@H]1Cc1ccc(O)c(O)c1-3
Key: 0.666

###

# Measurement protocol: in vivo
# Measurement setup: male, C57BL/6J, mouse, po, 25 mg/kg, Brain concentration, male C57BL/6J mice, repeated oral dose 25 mg/kg, 2 h post last day (Day 4) dose, G3
Parameter: concentration at 2 h (ng/g)
I only need the number, in ng/g, no unit after it.

Exercise: Form field: reported concentration at 2 h of CN1CCc2cccc3c2[C@@H]1Cc1ccc(O)c(O)c1-3
Key: 10.9

###

# Measurement protocol: in vivo
# Measurement setup: male, cynomolgus monkey, po, 10 mg/kg, Plasma concentration, fed male Cynomolgus Monkeys, 0.5 h, animal 168779C
Parameter: concentration at 0.5 h (ng/mL)
# unit: ng/mL | format: bare number

Exercise: Sample CN1CCc2cccc3c2[C@@H]1Cc1ccc(O)c(O)c1-3 — what was its concentration at 0.5 h?
Key: 1.26
